Provenance of the data: the supplement of paper PMC11208160

Attribute: recombinant barcode read abundance (log10)
- measurement-protocol: recombinant barcode read abundance after kanamycin selection (control-corrected) (log10(CPM+1)); higher = more efficient recombination; sequences stand for … in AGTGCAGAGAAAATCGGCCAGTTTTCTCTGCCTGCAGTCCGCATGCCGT…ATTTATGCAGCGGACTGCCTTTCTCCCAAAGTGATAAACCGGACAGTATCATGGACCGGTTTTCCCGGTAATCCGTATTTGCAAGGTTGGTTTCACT; site = the 11-nt target
assay-endpoint: recombinant barcode read abundance (log10)

- seq: "TCGCGACTTTGGGTTCTAACCTGTTGCCGAA [TCGCGACCTCG_LTGcore_TT_RTGcore_TT] (site TCGCGACCTCG) (LTG core: TT, RTG core: TT)"
  reading: 0
- seq: "GAGGCCTCTTGGGTTCTAACCTGTTGCCATA [GAGGCCTCTTG_LTGcore_CT_RTGcore_TA] (site GAGGCCTCTTG) (LTG core: CT, RTG core: TA)"
  reading: 0.267
- seq: "AGTCTTAGGTGGGTTCTAACCTGTTGCCACC [AGTCTTACTTG_LTGcore_GG_RTGcore_GG] (site AGTCTTACTTG) (LTG core: GG, RTG core: GG)"
  reading: 0.274
- seq: "GGGCGGAGATGGGTTCTAACCTGTTGCGGTC [GGGCGGACTCC_LTGcore_GA_RTGcore_GA] (site GGGCGGACTCC) (LTG core: GA, RTG core: GA)"
  reading: 0.235
- seq: "CGCGCCCCGTGGGTTCTAACCTGTTGCGGCG [CGCGCCCCTCC_LTGcore_CG_RTGcore_CG] (site CGCGCCCCTCC) (LTG core: CG, RTG core: CG)"
  reading: 0
- seq: "ACGGGACCTTGGGTTCTAACCTGTTGCAGAA [ACGGGACCTCT_LTGcore_CT_RTGcore_TT] (site ACGGGACCTCT) (LTG core: CT, RTG core: TT)"
  reading: 0.387
- seq: "AAACACATATGGGTTCTAACCTGTTGCCTAG [AAACACACTAG_LTGcore_TA_RTGcore_CT] (site AAACACACTAG) (LTG core: TA, RTG core: CT)"
  reading: 0.104
- seq: "GGCTCCCGCTGGGTTCTAACCTGTTGCGGAG [GGCTCCCCTCC_LTGcore_GC_RTGcore_CT] (site GGCTCCCCTCC) (LTG core: GC, RTG core: CT)"
  reading: 0.0135
- seq: "AGTCTTACTTGGGTTCTAACCTGTTGCCATT [AGTCTTACTTG_LTGcore_CT_RTGcore_AA] (site AGTCTTACTTG) (LTG core: CT, RTG core: AA)"
  reading: 0.196
- seq: "GAGTCCTCTTGGGTTCTAACCTGTTGCCTTC [GAGTCCTCTAG_LTGcore_CT_RTGcore_GA] (site GAGTCCTCTAG) (LTG core: CT, RTG core: GA)"
  reading: 1.24
- seq: "CGAGCCCAATGGGTTCTAACCTGTTGCTGAG [CGAGCCCCTCA_LTGcore_AA_RTGcore_CT] (site CGAGCCCCTCA) (LTG core: AA, RTG core: CT)"
  reading: 0.0167
